Entries and their measured Absorptivity (ε) follow.
- testDetails: UV-Vis spectra and calibration curve of FMR-DAAs (excitation/emission maxima, absorptivity)
- Assay type: physicochemical
- Design: unit not given here
- testContext: PBS (pH 7.4); Beer's Law
- Protocol: The excitation and emission wavelengths of FMR-DAAs were measured by SpectraMax M2 plate reader using disposable cuvette (polymethyl methacrylate). UV-Vis spectra of FMR-DAAs were measured by scanning within a range from 350 to 800 nm with an increment of 1 nm. The wavelength at maximum absorbance (Ex) and emission (Em) of FMR-DAAs were recorded. […]

Sample answers from the record:
[
  {
    "compound": "NC(CNC(=O)c1cc2ccc(O)cc2oc1=O)C(=O)O (stereo not shown) [HADA, reference compound]",
    "endpointLabel": "Absorptivity (ε)",
    "assayResult": 109538
  },
  {
    "compound": "N#C/C(=C\\c1ccc(-c2ccc3c(c2)CCCN3CCC(=O)NCCCC[C@@H](N)C(=O)O)s1)C(=O)O",
    "endpointLabel": "Absorptivity (ε)",
    "assayResult": 33106
  },
  {
    "compound": "N#CC(=Cc1ccc(-c2ccc3c(c2)CCCN3CCC(=O)O)s1)C(=O)NCCCCC(N)C(=O)O (stereo in doubt)",
    "endpointLabel": "Absorptivity (ε)",
    "assayResult": 25409
  }
]

stdin: What does the record list as Absorptivity (ε) for N#C/C(=C\c1ccc2c(c1)CCCN2CCC(=O)NCCCC[C@@H](N)C(=O)O)C(=O)O ?
stdout: 19761
